# system-tested: PXR (human SXR ligand binding domain) (Homo sapiens)
# Construct: expressed in transfected cells; host or cells: HuH7 (human liver) cells
# Sequence (O75469 146-433 limits assumed): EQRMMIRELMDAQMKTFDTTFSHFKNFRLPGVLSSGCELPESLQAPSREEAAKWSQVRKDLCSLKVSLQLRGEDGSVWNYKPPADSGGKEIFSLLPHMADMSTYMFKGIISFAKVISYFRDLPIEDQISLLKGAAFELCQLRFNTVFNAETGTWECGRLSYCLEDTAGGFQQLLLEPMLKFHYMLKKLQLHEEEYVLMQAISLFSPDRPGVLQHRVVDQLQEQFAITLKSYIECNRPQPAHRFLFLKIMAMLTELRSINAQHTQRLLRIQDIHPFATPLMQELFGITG
# assay-overview: PXR Assay: GAL4PXR/GAL4 response element reporter assay in HuH7 cells
# Type: cell-based
# experimental-parameters: 24 h, versus maximum stimulation with rifampicin
Each record here notes measured PXR (% efficacy versus max stimulation with Rifampicin).
Lab book: enter the figure in %, no units written.

{"columns": ["compound", "recorded-measurement"],
 "data": [
  ["CC(C)(Oc1ccc(OC(CCCC(F)(F)F)c2nn(-c3ccc(C(F)(F)F)cc3)c(=O)n2-c2c(F)cccc2F)cc1)C(=O)O (racemic)", 13.5],
  ["Cc1cc(OCc2nn(-c3ccc(C(F)(F)F)cc3)c(=O)n2C(C)C)ccc1OC(C)(C)C(=O)O", 32.4],
  ["COCCn1c(COc2ccc(OC(C)(C)C(=O)O)c(C)c2)nn(-c2ccc(C(F)(F)F)cc2)c1=O", 52.8]
]}

Could you now consider this next compound?
Looking up Cc1cc(OCc2nn(-c3ccc(C(F)(F)F)cc3)c(=O)n2-c2ccccc2F)ccc1OC(C)(C)C(=O)O , I see its PXR (% efficacy versus max stimulation with Rifampicin) listed as 57.8

Where these numbers come from: patent US20100099725A1
